# method description: E. coli acrAB mutant growth effects, primary screen, E. coli filamentation inducers, strain DRC39, OD650, 24 h (AID 1178);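 also: growth measured as culture turbidity by optical density at 650 nm; test concentration not given here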
# cond: higher = more signal, called active from +8 up or from −8 down
Classes (z-score): low value (below -0.3), medium value (-0.3 to below 0.5), high value (0.5 or more)

[[record]]
compound = "C=CCN1C(=O)[C@@]2(CCS(=O)(=O)c3ccccc3)N=C(c3ccc(OCCCO)cc3)O[C@H]2c2ccccc21"
group = "medium value"

[[record]]
compound = "Cc1cc(C)c(C(O)C2C=CC3C(=O)NC(=O)C3N2Nc2ccc(Cl)cc2Cl)c(C)c1 (centres undefined)"
group = "low value"

[[record]]
compound = "COCCCNC(=O)[C@]1(CCS(=O)(=O)c2ccccc2)N=C(c2ccc(OCCCO)cc2)O[C@@H]1c1ccccc1N=[N+]=[N-]"
group = "medium value"

[[record]]
compound = "CCOC(=O)C[C@H]1[C@H](OC(=O)c2ccccc2-c2ccccc2)[C@@H](NC(=O)C2CCCCC2)c2cc(OCCCO)ccc2N1C(=O)Cc1ccc(OC)cc1"
group = "low value"

[[record]]
compound = "COC(=O)CCCCCCC(=O)Nc1ccc(NC(=O)CCCC[P+](c2ccccc2)(c2ccccc2)c2ccccc2)cc1"
group = "low value"

[[record]]
compound = "CC1=C([C@H](O)CCc2ccccc2)[C@H](CO)[C@@H]2C(=O)N(C)C(=O)[C@@H]2C1"
group = "medium value"

[[record]]
compound = "[N-]=[N+]=Nc1ccccc1[C@@H]1OC(c2ccc(OCCCO)cc2)=N[C@]1(Cc1ccccc1)C(=O)NCC(O)CO (some centres undefined)"
group = "high value"

[[record]]
compound = "COC(=O)c1c(CC[C@@H](CO)NC(=O)N2CCC[C@H]2Cn2cc(Cc3ccccc3)nn2)oc(C(C)=O)c1C(=O)OC"
group = "high value"

[[record]]
compound = "COc1ccc(C(O)C2C=CC3C(=O)N(c4ccccc4)C(=O)C3N2Nc2ccc([N+](=O)[O-])cc2)cc1 (centres undefined)"
group = "low value"

[[record]]
compound = "COc1ccc(CCNC(=O)[C@@H]2c3ccccc3C(=O)N(Cc3cc(C(F)(F)F)cc(C(F)(F)F)c3)[C@H]2c2ccc(CO)cc2)cc1"
group = "high value"

[[record]]
compound = "Cc1ccc(S[C@]2(C(=O)NCC(F)(F)F)CC(=O)N(Cc3ccccc3)[C@@H]2c2ccc(CO)cc2I)cc1"
group = "high value"

[[record]]
compound = "COCCOC(=O)N1C(=O)[C@@]2(c3cc(C#CC4=CCCCC4)ccc31)[C@H](c1ccccc1OCCO)N1[C@H](c3ccccc3)[C@H](c3ccccc3)OC(=O)[C@H]1[C@@H]2C(=O)N1CCCCCCC1"
group = "medium value"


---

# system under test: Fibroblast growth factor 2 (Homo sapiens)
# method description: FGF2 binders on small-molecule microarrays, primary screen, biochemical, small-molecule microarray, 635/667 nm fluorescence (AID 1133)
# cond: small-molecule microarray binding, FGF2, fluorescence 635/667; higher = more signal
readout kind: composite z-score

[[record]]
compound = "CC(=O)NCCCC[C@@H]1NC(=O)[C@@H]2C[C@H](C(=O)NCCCC[N+](C)(C)C)[C@H](c3ccc(O)cc3)N2C1=O"
observed_value = 1.73

[[record]]
compound = "CCOc1cc(C(O)C2C=CC3C(=O)N(c4ccccc4)C(=O)C3N2Nc2ccc(C#N)cc2)ccc1O (stereo not drawn)"
observed_value = -0.667

[[record]]
compound = "CN(C)CCCNC(=O)[C@@H]1c2ccccc2C(=O)N(Cc2ccccc2Cl)[C@H]1c1ccc(CO)cc1"
observed_value = -0.0728

[[record]]
compound = "COc1ccc(NC(=O)O[C@H]2[C@H](OC(=O)Nc3ccccc3)[C@@H](OC(=O)Nc3ccccc3)[C@@H](OC)O[C@@H]2CO)cc1"
observed_value = 1.72

[[record]]
compound = "O=C1OCCC=C[C@H]2OC34C=CCN(Cn5nnc6ccccc65)C(=O)[C@H]3N(CCCCCCO)C(=O)[C@@H]4C12 (stereo partly drawn)"
observed_value = -1.24

[[record]]
compound = "O=C1NC(=O)C2C1C=CC(C(O)c1c(F)cccc1Cl)N2Nc1ccc(Cl)cc1Cl (stereo not drawn)"
observed_value = -0.891

[[record]]
compound = "C[C@@H]1ON(c2ccc(C(=O)OC(C)(C)C)cc2)[C@H](c2ccc(O)cc2)[C@H]1C(=O)N1C(=O)OC[C@H]1Cc1ccccc1"
observed_value = 0.382

[[record]]
compound = "C=CC1c2cc(O)c(OC)cc2CCN1Cc1cc2c(cc1Br)OCO2 (stereo not drawn)"
observed_value = -0.0941


---

# method description: E. coli acrAB mutant growth effects, primary screen, E. coli filamentation inducers, strain DRC39, OD650, 48 h (AID 1179);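 also: screen aims at cell division blockers that make cells filament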
# cond: E. coli DRC39 delta-acrAB growth, higher = more signal, called active from +8 up or from −8 down
readout kind: z-score

[[record]]
compound = "C=C(C(=O)CC[C@@H](OC(C)=O)c1ccc(CO)o1)C(C)C"
observed_value = -0.374

[[record]]
compound = "Cc1cc(C)c(C(O)C2C=CC3C(=O)NC(=O)C3N2Nc2ccc(Cl)cc2Cl)c(C)c1 (stereo not drawn)"
observed_value = -1.17

[[record]]
compound = "CCCCCCCCCCC(O)C1C=CC2C(=O)N(C)C(=O)C2N1NC(=O)OC(C)(C)C (stereo not drawn)"
observed_value = -1.45

[[record]]
compound = "COC(=O)c1nc2oc1CC[C@@H](CO)NC(=O)N(C)Cc1cnnn1C[C@H](Cc1ccccc1)NC2=O"
observed_value = 1.12

[[record]]
compound = "CCOC(=O)C[C@H]1[C@H](OC(=O)c2ccc(C(=O)c3ccccc3)cc2)[C@@H](NC(=O)Cc2ccc(OC)cc2)c2cc(OCCCO)ccc2N1C(=O)c1ccccc1"
observed_value = -0.215

[[record]]
compound = "CN(C)C(=O)[C@@]1(CCS(=O)(=O)c2ccccc2)N=C(c2ccc(OCCCO)cc2)O[C@H]1c1ccccc1"
observed_value = -0.732

[[record]]
compound = "COc1ccc(NC(=O)O[C@H]2[C@H](OC(=O)Nc3ccccc3)[C@@H](OC(=O)Nc3ccccc3)[C@@H](OC)O[C@@H]2CO)cc1"
observed_value = -0.141

[[record]]
compound = "COc1cc(OC)c(C(O)C2C=CC3C(=O)N(C)C(=O)C3N2NC(=O)OC(C)(C)C)cc1Br (stereo not drawn)"
observed_value = -0.376


---

# method description: MM1S myeloma cell viability, profiling panel, resazurin fluorescence, basal, 24 h, PK04 Diversity Set (AID 1174);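 also: MM1S multiple myeloma cell line; test concentration not given here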
# cond: higher = more signal, called active from +8 up or from −8 down
readout kind: z-score

[[record]]
molecule = "CC(C)C[C@@H]1NC(=O)[C@@H]2C[C@H](C(=O)NCCCCN(C)C)[C@H](c3cccc(OCCO)c3)N2C1=O"
observed_value = 0.303

[[record]]
molecule = "COC(=O)[C@@]1(Cc2ccc(OC)cc2)[C@H]2c3cc(C(=O)N4CCCC4)n(Cc4c(-c5ccccc5)noc4C)c3C[C@H]2CN1C(=O)c1ccccc1"
observed_value = -0.39

[[record]]
molecule = "CC(C)(C)N1CC=CC23O[C@@H]4C=CCCOC(=O)C4[C@H]2C(=O)N(CCO)[C@@H]3C1=O (some centres undefined)"
observed_value = -0.512

[[record]]
molecule = "COC(=O)Cn1c(C(=O)N(C)C)cc2c1C[C@H]1CN(C(=O)c3ccccc3)[C@@](Cc3ccc(F)cc3)(C(=O)OC)[C@@H]21"
observed_value = -0.702

[[record]]
molecule = "C=C(COC)C(=O)CC[C@@H](OC(=O)c1cccnc1)c1ccc(OCCO)cc1"
observed_value = 0.556

[[record]]
molecule = "COc1cccc(/C=C/C=O)c1"
observed_value = -0.687

[[record]]
molecule = "C=CCOC(=O)[C@H]1[C@@H]2C(=O)O[C@@H](c3ccccc3)[C@@H](c3ccccc3)N2[C@@H](c2ccc(OCCOC(=O)[C@H]3C[C@H]4C(=O)N[C@@H](CCCCNC(C)=O)C(=O)N4[C@H]3c3ccc(O)cc3)cc2)[C@]12C(=O)Nc1ccccc12"
observed_value = 1.74

[[record]]
molecule = "COc1cc2c(cc1OC)CN(C(=O)[C@@H]1[C@H]3C(=O)O[C@H](c4ccccc4)[C@H](c4ccccc4)N3[C@H](c3ccc(OCCO)cc3)[C@@]13C(=O)Nc1ccc(C#CC4(O)CCCCCC4)cc13)CC2"
observed_value = 0.341

[[record]]
molecule = "CC(c1ccccc1)C(O)C1C=CC2C(=O)N(c3ccccc3)C(=O)C2N1Nc1ccc([N+](=O)[O-])cc1 (centres undefined)"
observed_value = 0.831

[[record]]
molecule = "O=C1O[C@@H](c2ccccc2)[C@@H](c2ccccc2)N2[C@@H](c3ccc(O)cc3)[C@]3(C(=O)Nc4ccc(C#CC5=CCCCC5)cc43)[C@@H](C(=O)NC[C@H](O)c3ccccc3)[C@H]12"
observed_value = -3.09

[[record]]
molecule = "CC(CO)N1C(=O)[C@@H]2[C@H]3C(=O)OCC=C[C@H]3OC23C=CCN(Cc2ccccc2)C(=O)[C@@H]13 (some centres undefined)"
observed_value = 1.01

[[record]]
molecule = "CN1C(=O)C2C=CC(C(O)c3ccc(F)cc3)N(Nc3ccccc3)C2C1=O (centres undefined)"
observed_value = -1.24

[[record]]
molecule = "CCOC(=O)C[C@H]1[C@H](OC(=O)c2cc3ccccc3oc2=O)[C@@H](NC(=O)Cc2ccc(OC)cc2)c2cc(OCCCO)ccc2N1C(=O)c1ccc2ccccc2n1"
observed_value = -0.377

[[record]]
molecule = "C=CCN1C(=O)[C@@]2(O[C@@H](CCn3cc([C@H](O)c4ccccc4)nn3)[C@H]([Si](C)(C)c3ccc(OC)cc3)[C@H]2C)c2cc(N3CCC3=O)ccc21"
observed_value = -1.14

[[record]]
molecule = "COC(=O)c1ccc([C@H](NC(=O)c2ccco2)[C@]2(C)C[C@H]2C2CCCCC2)cc1"
observed_value = -0.806

[[record]]
molecule = "CCOC(=O)C[C@H]1[C@H](OC(=O)Cc2ccc3c(c2)OCO3)[C@@H](NC(=O)Cc2ccc(OC)cc2)c2cc(OCCCO)ccc2N1C(=O)c1ccc2ccccc2n1"
observed_value = 0.853

[[record]]
molecule = "Cc1ccc(S[C@]2(C(=O)O)CC(=O)N(Cc3cc(C(F)(F)F)cc(C(F)(F)F)c3)[C@@H]2c2ccc(CO)cc2)cc1"
observed_value = -0.543

[[record]]
molecule = "CCCC[C@@H]1C[C@H]1[C@@H](NC(=O)Cc1ccccc1)c1ccc(-c2ccccc2)cc1"
observed_value = 0.143

[[record]]
molecule = "CN1C(=O)C2C=CC(C(O)C#Cc3ccccc3)N(Nc3ccccc3)C2C1=O (centres undefined)"
observed_value = -1.06

[[record]]
molecule = "COC(=O)[C@@]1(Cc2ccc(OC)cc2)[C@@H]2C(=CC(=O)[C@H]2CC(=O)C(=O)N(C)C)CN1C(=O)c1ccccc1"
observed_value = -2.16

[[record]]
molecule = "N#Cc1ccc(NN2C(C(O)c3ccc(F)cc3)C=CC3C(=O)N(c4ccccc4)C(=O)C32)cc1 (centres undefined)"
observed_value = -0.388

[[record]]
molecule = "CC(C)C(=C=CC[C@H](O)c1cccc(OCCO)c1)C[C@H](O)c1cc(Cl)cc(Cl)c1O"
observed_value = 0.0849

[[record]]
molecule = "CO[C@H]1O[C@H](CO)[C@@H](OC(=O)Nc2ccc3c(c2)OCO3)[C@H](OC(=O)c2cc3ccccc3[nH]2)[C@H]1OC(=O)c1cc2ccccc2[nH]1"
observed_value = -3.48

[[record]]
molecule = "COc1ccc(C#Cc2ccc3c(c2)[C@]2(C(=O)N3)[C@H](c3ccc(O)cc3)N3[C@H](c4ccccc4)[C@H](c4ccccc4)OC(=O)[C@H]3[C@@H]2C(=O)O)cc1"
observed_value = 0.504


Sourced from PubChem BioAssay
